B1: HDV Ribozyme (parent)
chain: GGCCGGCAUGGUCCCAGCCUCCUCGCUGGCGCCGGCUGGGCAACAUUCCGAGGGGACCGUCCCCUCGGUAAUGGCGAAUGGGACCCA

Variants of: B1
Experiment: self-cleavage, relative activity (ratio to wild type); higher = more cleavage; co-transcriptional
Decide by self-cleavage: equal to or exceeding 0.4 means Yes, less means No.

G10C A51U    Yes
C22A C48U    Yes
C4G C62G    No
G11U A70U    No

Continue with the variant presented below.
Prompt: API: above_or_equal(metric=self-cleavage, cutoff=0.4) for item G25A U47C
Completion: No
